FYI, the data here is from patent US8389541B2.

Collected pIC50 values appear next to each entry.
# test.target: c-Met (Homo sapiens, UniProt P08581)
# Construct: endogenous in cells
# Sequence (P08581 25-1390): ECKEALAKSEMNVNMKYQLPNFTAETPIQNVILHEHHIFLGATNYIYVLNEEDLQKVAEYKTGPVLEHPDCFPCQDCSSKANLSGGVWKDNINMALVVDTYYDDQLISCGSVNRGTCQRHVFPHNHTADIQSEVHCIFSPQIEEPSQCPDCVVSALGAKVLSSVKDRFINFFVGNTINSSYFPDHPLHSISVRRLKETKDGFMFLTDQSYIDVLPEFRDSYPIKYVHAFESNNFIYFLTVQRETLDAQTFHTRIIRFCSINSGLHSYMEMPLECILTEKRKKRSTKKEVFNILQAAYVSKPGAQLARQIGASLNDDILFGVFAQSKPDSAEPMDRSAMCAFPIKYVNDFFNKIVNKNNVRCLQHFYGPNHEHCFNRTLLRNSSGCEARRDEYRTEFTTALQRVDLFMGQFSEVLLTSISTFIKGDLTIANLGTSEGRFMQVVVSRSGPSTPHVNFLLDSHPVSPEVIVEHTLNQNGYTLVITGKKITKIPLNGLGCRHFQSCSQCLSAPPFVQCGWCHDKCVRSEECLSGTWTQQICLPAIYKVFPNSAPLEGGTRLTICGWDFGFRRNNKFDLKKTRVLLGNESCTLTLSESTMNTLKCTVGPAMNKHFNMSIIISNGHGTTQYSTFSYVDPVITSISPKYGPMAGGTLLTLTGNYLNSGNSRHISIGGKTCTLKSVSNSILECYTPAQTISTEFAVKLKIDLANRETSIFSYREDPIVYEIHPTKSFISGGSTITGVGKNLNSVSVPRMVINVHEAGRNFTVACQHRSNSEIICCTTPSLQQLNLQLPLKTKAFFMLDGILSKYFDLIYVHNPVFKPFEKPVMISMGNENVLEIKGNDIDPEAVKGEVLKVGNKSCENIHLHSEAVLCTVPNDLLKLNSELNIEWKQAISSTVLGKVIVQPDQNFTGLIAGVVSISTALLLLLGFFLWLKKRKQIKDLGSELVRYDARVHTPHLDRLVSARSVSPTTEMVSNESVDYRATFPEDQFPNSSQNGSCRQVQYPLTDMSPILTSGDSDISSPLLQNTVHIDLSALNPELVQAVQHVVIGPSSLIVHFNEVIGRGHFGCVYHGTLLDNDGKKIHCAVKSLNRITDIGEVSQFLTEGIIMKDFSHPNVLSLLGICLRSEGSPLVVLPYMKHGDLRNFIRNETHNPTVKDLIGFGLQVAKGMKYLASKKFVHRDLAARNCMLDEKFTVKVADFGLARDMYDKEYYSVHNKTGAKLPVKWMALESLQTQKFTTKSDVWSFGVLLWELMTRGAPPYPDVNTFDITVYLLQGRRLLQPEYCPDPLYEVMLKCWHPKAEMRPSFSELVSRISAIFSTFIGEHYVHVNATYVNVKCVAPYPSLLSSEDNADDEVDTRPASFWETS
# test.name: Inhibition of c-Met phosphorylation in MKN45 cells (direct ELISA)
# conditions.used: 3 h treatment, read-out: CMET ELISA IN MKN45 IC50
pIC50: −log10 of the molar value.

Reference set (8 entries):
In [3]: df
Out[3]:
                                   compound  property           val
0  COCCNCc1ccc(-c2cc3nccc(Oc4ccc(NC(=O)CC(=O)N(C)c5ccccc5)cc4F)c3s2)nc1 [drawing 346]     pIC50        > 6.60
1  O=C(Nc1ccccc1)C1(C(=O)Nc2ccc(Oc3ccnc4cc(-c5ccc(CNC6CC6)cc5)sc34)c(F)c2)CC1     pIC50        > 6.60
2  COCCNCc1ccc(-c2cc3nccc(Oc4ccc(NC(=O)C5(C(=O)Nc6ccccc6OC)CC5)cc4F)c3s2)cc1     pIC50  6.00 to 6.30
3  CS(=O)(=O)CCNCc1ccc(-c2cc3nccc(Oc4ccc(NC(=S)NC(=O)Cc5ccc(F)cc5)cc4F)c3s2)cc1     pIC50        > 6.60
4  COCCNCc1ccc(-c2cc3nccc(Oc4ccc(NC(=S)NC(=O)Cc5ccccc5)cc4F)c3s2)nc1     pIC50        > 6.60
5  COCCNCc1cccc(-c2cc3nccc(Oc4ccc(NC(=O)NC(=O)Cc5ccc(F)cc5)cc4F)c3s2)c1     pIC50  6.30 to 6.60
6  O=C(Nc1ccccc1)C1(C(=O)Nc2ccc(Oc3ccnc4cc(-c5ccc(CNCC(F)(F)F)cc5)sc34)c(F)c2)CC1     pIC50        > 6.60
7  COCCNCc1ccc(-c2cc3nccc(Oc4ccc(NC(=O)CC(=O)Nc5ccccc5)cc4F)c3s2)c(F)c1     pIC50        > 6.60

Query: Return value of pIC50 for input COCCNCc1ccc(-c2cc3nccc(Oc4ccc(NC(=S)NC(=O)Cc5ccccc5OC)cc4F)c3s2)nc1 [drawing 311] , no commentary.
Result: > 6.60

Query: Item COCCNC(=O)c1ccc(-c2cc3nccc(Oc4ccc(NC(=S)NC(=O)Cc5ccccc5)cc4F)c3s2)cc1 : provide pIC50
Result: > 6.60

Query: Give the value of pIC50 reported for the following: COCCNCCc1cccc(-c2cc3nccc(Oc4ccc(NC(=S)NC(=O)Cc5ccc(F)cc5)cc4F)c3s2)c1
Result: > 6.60

Query: Specify pIC50 for COCCNCc1ccc(-c2cc3nccc(Oc4ccc(NC(=O)C5(C(=O)Nc6ccccc6)CC5)cc4F)c3s2)cc1 [drawing 310] and stop.
Result: > 6.60

Query: Given CN(C(=O)CC(=O)Nc1ccc(Oc2ccnc3cc(-c4ccc(CNCCS(C)(=O)=O)cc4)sc23)c(F)c1)c1ccccc1 [drawing 347] , respond with its pIC50.
Result: > 6.60

Query: Using known records, supply pIC50 for COCCNCc1ccc(-c2cc3nccc(Oc4ccc(NC(=O)CC(=O)Nc5ccc(F)cc5)cc4F)c3s2)nc1
Result: > 6.60

Query: Respond only with pIC50 recorded for COCCNCc1ccc(-c2cc3nccc(Oc4ccc(NC(=O)CC(=O)Nc5ccccc5)cc4F)c3s2)nc1
Result: > 6.60

Query: Output measured pIC50 for this item: COCCNCc1cccc(-c2cc3nccc(Oc4ccc(NC(=S)NC(=O)Cc5ccc(F)cc5)cc4F)c3s2)c1 [drawing 296]
Result: > 6.60

Query: Give reported pIC50 value for COCCNCCn1cc(-c2cc3nccc(Oc4ccc(NC(=O)C5(C(=O)Nc6ccccc6)CC5)cc4F)c3s2)cn1
Result: > 6.60

Query: Specify reported pIC50 for the compound shown: COCCNCc1ccc(-c2cc3nccc(Oc4ccc(NC(=S)NC(=O)Cc5ccccc5OC)cc4F)c3s2)cc1
Result: > 6.60

Query: Answer with reported pIC50 of CSCCNCc1ccc(-c2cc3nccc(Oc4ccc(NC(=S)NC(=O)Cc5ccccc5)cc4F)c3s2)cc1
Result: > 6.60

Query: Retrieve pIC50 measured for COCCNCCc1cccc(-c2cc3nccc(Oc4ccc(NC(=O)C5(C(=O)Nc6ccccc6)CC5)cc4F)c3s2)c1 and print it.
Result: > 6.60

Query: State, in one line, measured pIC50 of COCCNCc1cnc(-c2cc3nccc(Oc4ccc(NC(=S)NC(=O)Cc5ccccc5)cc4F)c3s2)n1C [drawing 342]
Result: > 6.60

Query: Respond only with pIC50 recorded for COCCNCCn1cnc(-c2cc3nccc(Oc4ccc(NC(=S)NC(=O)Cc5ccccc5)cc4F)c3s2)c1
Result: > 6.60

Query: Return the recorded pIC50 value; entry: COC[C@H](C)NCc1cccc(-c2cc3nccc(Oc4ccc(NC(=S)NC(=O)Cc5ccc(F)cc5)cc4F)c3s2)c1 [drawing 297]
Result: > 6.60

Query: Specify pIC50 for COCCNCCn1cc(-c2cc3nccc(Oc4ccc(NC(=S)NC(=O)Cc5ccccc5)cc4F)c3s2)cn1 [drawing 321] and stop.
Result: > 6.60

---

# test.target: recombinant human c-Met/HGF receptor (Homo sapiens, UniProt P08581)
# test.name: In vitro receptor tyrosine kinase assay (DELFIA), c-Met/HGF receptor
pIC50: −log10 of the molar value.
Each entry below lists one item and its recorded pIC50 value.

In [3]: df
Out[3]:
                              line_notation           val
0  COCCNCc1cccc(-c2cc3nccc(Oc4ccc(NC(=O)NC5CC5)cc4F)c3s2)n1  6.30 to 6.60

Query: Fill in: pIC50 on recombinant human c-Met/HGF receptor (Homo sapiens, UniProt P08581), entry CS(=O)(=O)CCNCc1ccc(-c2cc3nccc(Oc4ccc(NC(=S)NC(=O)Cc5ccc(F)cc5)cc4F)c3s2)cc1
Result: > 6.60

Query: Report measured pIC50 on recombinant human c-Met/HGF receptor (Homo sapiens, UniProt P08581); entry: COCCNCc1ccc(-c2cc3nccc(Oc4ccc(NC(=S)NC(=O)Cc5ccccc5F)cc4F)c3s2)cc1
Result: > 6.60

Query: Enter recorded pIC50 with recombinant human c-Met/HGF receptor (Homo sapiens, UniProt P08581) for COCCNCc1ccc(-c2cc3nccc(Oc4ccc(NC(=S)NC(=O)Cc5ccccc5)cc4F)c3s2)s1 here.
Result: > 6.60

---

# test.target: c-Met (Homo sapiens, UniProt P08581)
# Construct: endogenous in cells; host or cells: MKN45 gastric carcinoma cells
# test.name: Inhibition of c-Met phosphorylation in MKN45 cells (direct ELISA)
# Type: cell-based
# conditions.used: 3 h treatment, read-out: CMET ELISA IN MKN45 IC50
property: IC50

                                   compound  property             val
0  COCCNCc1cccc(-c2cc3nccc(Oc4ccc(NC(=S)NC(=O)Cc5ccccc5OC)cc4F)c3s2)c1      IC50       < 0.25 µM
1  COCCNCc1ccc(-c2cc3nccc(Oc4ccc(NC(=S)NC(=O)Cc5ccccc5)cc4F)c3s2)o1      IC50       < 0.25 µM
2  COCCNCc1ccc(-c2cc3nccc(Oc4ccc(NC(=O)CC(=O)Nc5ccccc5)cc4F)c3s2)cc1      IC50  0.25 to 0.5 µM

Query: Annotate the compound COCCNCCn1cc(-c2cc3nccc(Oc4ccc(NC(=O)CC(=O)N(C)c5ccccc5)cc4F)c3s2)cn1 [drawing 334] with its measured IC50.
Result: < 0.25 µM

---

# Test system: MKN45 tumor
# test.name: In vivo solid tumor disease model, MKN45
# Parameters: species or system mice
# conditions.used: Mus musculus, MKN-45, po, 192 h; MKN45, 20 mg/kg orally daily, 8 days; read-out: Tumor Growth Inhibition (%)
Listed here: items and their measured inhibition in vivo at 20 mg/kg.

Recorded results for 3 compounds are shown here.
>>> df
                                   compound        val
0  COCCNCc1ccc(-c2cc3nccc(Oc4ccc(NC(=S)NC(=O)Cc5ccccc5OC)cc4F)c3s2)nc1 [drawing 365]  25 to 50%
1  COCCNCc1ccc(-c2cc3nccc(Oc4ccc(NC(=S)NC(=O)Cc5ccc(F)cc5)cc4F)c3s2)cn1 [drawing 363]  25 to 50%
2  COCCNCc1ccc(-c2cc3nccc(Oc4ccc(NC(=O)C5(C(=O)Nc6ccccc6)CC5)cc4F)c3s2)cc1 [drawing 364]      ≥ 75%

Now examine the next entry.
Query: Name the recorded inhibition in vivo at 20 mg/kg of the item COCCNCc1ccc(-c2cc3nccc(Oc4ccc(NC(=S)NC(=O)Cc5ccccc5)cc4F)c3s2)cn1 [drawing 362] in your answer.
Result: < 25%

---

# test.target: c-Met (Homo sapiens, UniProt P08581)
# Construct: endogenous in cells
# test.name: Inhibition of c-Met phosphorylation in MKN45 cells (direct ELISA)
# conditions.used: 3 h treatment, read-out: CMET ELISA IN MKN45 IC50
property: IC50

Solved entries:
In [3]: df
Out[3]:
                                   compound            val
0  COC[C@H](C)NCc1ccc(-c2cc3nccc(Oc4ccc(NC(=S)NC(=O)Cc5ccccc5)cc4F)c3s2)cc1  250 to 500 nM
1  COCCNCc1ccc(-c2cc3nccc(Oc4ccc(NC(=S)NC(=O)Cc5ccccc5F)cc4F)c3s2)cc1       < 250 nM
2  COCCNCCn1cnc(-c2cc3nccc(Oc4ccc(NC(=S)NC(=O)Cc5ccc(F)cc5)cc4F)c3s2)c1 [drawing 318]       < 250 nM
3  COCCNCc1ccc(-c2cc3nccc(Oc4ccc(NC(=S)NC(=O)Cc5ccccc5)cc4F)c3s2)cn1 [drawing 308]       < 250 nM
4  COCCNCc1cnc(-c2cc3nccc(Oc4ccc(NC(=O)CC(=O)Nc5ccccc5)cc4F)c3s2)n1C [drawing 345]       < 250 nM

Query: State, in one line, measured IC50 of COCCNCc1ccc(-c2cc3nccc(Oc4ccc(NC(=O)NC(=O)Cc5ccccc5OC)cc4F)c3s2)cc1
Result: 500 to 1000 nM

Query: Please list IC50 recorded for the compound COC[C@H](C)NCc1ccc(-c2cc3nccc(Oc4ccc(NC(=O)C5(C(=O)Nc6ccccc6)CC5)cc4F)c3s2)cc1
Result: < 250 nM

Query: Provide one value: measured IC50 of COCCNCc1ccc(-c2cc3nccc(Oc4ccc(NC(=O)C5(C(=O)Nc6ccccc6)CC5)cc4F)c3s2)nc1 [drawing 350]
Result: < 250 nM

Query: Item CS(=O)(=O)CCNCc1ccc(-c2cc3nccc(Oc4ccc(NC(=S)NC(=O)Cc5ccccc5)cc4F)c3s2)cc1 : provide IC50
Result: < 250 nM

Query: Give the measured IC50 for COCCNCc1ccc(-c2cc3nccc(Oc4ccc(NC(=S)NC(=O)Cc5ccc(F)cc5)cc4F)c3s2)o1
Result: < 250 nM

Query: Item COCCNCCC(=O)N1CC=C(c2cc3nccc(Oc4ccc(NC(=O)CC(=O)N(C)c5ccccc5)cc4F)c3s2)CC1 : provide IC50
Result: < 250 nM

Query: Respond only with IC50 recorded for COC[C@H](C)NCc1ccc(-c2cc3nccc(Oc4ccc(NC(=S)NC(=O)Cc5ccc(F)cc5)cc4F)c3s2)cc1
Result: < 250 nM

Query: Name the recorded IC50 of the compound listed here: COCCNCc1cccc(-c2cc3nccc(Oc4ccc(NC(=O)CC(=O)Nc5ccccc5)cc4F)c3s2)c1
Result: 250 to 500 nM

Query: State its IC50 for this compound: COCCNCc1ccc(-c2cc3nccc(Oc4ccc(NC(=S)NC(=O)Cc5ccccc5)cc4F)c3s2)s1
Result: < 250 nM

Query: Given COCCNCc1ccc(-c2cc3nccc(Oc4ccc(NC(=S)NC(=O)Cc5ccc(F)cc5)cc4F)c3s2)cn1 [drawing 309] , respond with its IC50.
Result: < 250 nM

Query: For COCCNCCc1ccc(-c2cc3nccc(Oc4ccc(NC(=O)CC(=O)Nc5ccccc5)cc4F)c3s2)cc1 , write its IC50.
Result: 250 to 500 nM
